- testDetails: NCI Yeast Anticancer Drug Screen. Data for the bub3 strain (AID 167)
- assayContext: S. cerevisiae bub3 mutant strain, at 5.0 µM (retest, dose inferred, filed as 0.5), stronger effect = higher value
The panel holds about 79,000 compounds, 15% with a hit somewhere; the sample as a whole holds those more often.
endpointName: growth inhibition (%)

# molecule, endpointName, assayResult
records = [
    ("CCCCCCCCCCCCCCCBr", "growth inhibition", 2),
    ("CCCC(=O)Oc1ccc(-c2ccccc2)cc1Br", "growth inhibition", 18),
    ("CS(=O)(=O)OCCN(CCOS(C)(=O)=O)c1ccc(C=Nc2cc(Cl)c(O)c(Cl)c2)c(Cl)c1", "growth inhibition", -1),
    ("CCCCNc1ccc(-c2c(N)nc(N)nc2CC)cc1[N+](=O)[O-]", "growth inhibition", -4),
    ("CCCCC(CC)CCC(C)OC(=O)C(O)c1ccccc1 (stereo not given)", "growth inhibition", 1),
    ("O=C(SCCCc1ccccc1)c1cc([N+](=O)[O-])cc([N+](=O)[O-])c1", "growth inhibition", 98),
    ("COc1ccc(C2Cc3cc(OC)ccc3C2=O)cc1 (stereo not given)", "growth inhibition", 32),
    ("N#CC1=C(N)OC(c2ccccc2)=C(C#N)C1c1ccccc1[N+](=O)[O-] (stereo not given)", "growth inhibition", -1),
    ("COc1cccc(NC(=S)NC(Cc2ccccc2)c2ccccc2)c1 (stereo not given)", "growth inhibition", -2),
    ("O=c1[nH]c2cc(Cl)ccc2nc1/C=C(\\O)c1ccc(N2CCN(c3ccc(/C(O)=C/c4nc5ccc(Cl)cc5[nH]c4=O)cc3)CC2)cc1", "growth inhibition", 19),
    ("CCN(CC)CCNC(=O)c1ccc(N=Cc2cc(Cl)cc(Cl)c2O)cc1", "growth inhibition", 88),
    ("CCCCCCc1ccc(O)c(Cl)c1", "growth inhibition", -5),
    ("COC1CCCCC1C(=O)C(C#N)C1CCCCC1C1CCCCC1 (stereo not given)", "growth inhibition", -3),
    ("CC1(c2ccc(Cl)cc2)OC(=O)c2c1ccc1ccccc21 (stereo not given)", "growth inhibition", 22),
    ("COc1ccc(Cc2c3ccccc3cc[n+]2C)cc1Oc1ccc(Cc2c3ccccc3cc[n+]2C)cc1", "growth inhibition", -2),
]
